Numbers sourced from the nanobody polyreactivity screen of Harvey et al. (2022).

Test: yeast display, Sf9 membrane polyspecificity reagent, FACS + sequencing; frameworks hold sequencing errors
quantity-measured: polyreactivity (PSR sort gate)

sequence-record	polyreactivity (PSR sort gate)
QVQLVESGGGLVQAGGSLRLSCAASGSTIPGNAMGWYRQAHGKERELVASISGGGDSTYYADSVKGRFTISRDNAKNTVYLQMKSLKPEDTAVYYCAADYRQEPGYTGYYYLGQGTQVTVSS	low polyreactivity
QVQLVESGGGLVQAGGSLRLSCAASGRIIYVNAMGWYRQAPGKERELVAAISSRGGTTYYADSVKGRFTISRDNAKNTVYLQMNSLKPEDTAVYYCNAGRVRHGNDYWGQGTQVTVSS	high polyreactivity
QVQLVESGGGLVQAGGSRRLSCAASGLTFANYVMGWYIQAPGKERELVAAISRSGGSTYYADSVKGRFTISRDNAKNTVYLQMNSLNPEDTAVYYCAAAALDPKGSRYDYWGQGTQVTVSS	low polyreactivity
QVQLVESGGRLVQAGGSIRLSCAASGGIFTAYAMGCYRQAPGKEREFVAGIDRSGGRTYYADSVKGRFTISRDNAKNNVYLQMNSLKPEDTAVYYCYARGYVYQNQLYYYWGQGSQVTVSS	high polyreactivity

Measured polyreactivity (PSR sort gate) of "QVQLVESGGGLVQAGGSLRLSCAASGRTFWDYGMGWYRQAPGKERELVATISGNGGDTYYADSVKGRFTISRDNAKNTVYLQMNSLKPEDTAVYYCAADYRFYRTDRHYDYWGQGSQVTVSS" : low polyreactivity
